Hello, the source for this data is paper PMC6540285, in case you need it.

- system: CYP2D6 (Homo sapiens, UniProt P10635)
- Sequence (P10635 whole entry): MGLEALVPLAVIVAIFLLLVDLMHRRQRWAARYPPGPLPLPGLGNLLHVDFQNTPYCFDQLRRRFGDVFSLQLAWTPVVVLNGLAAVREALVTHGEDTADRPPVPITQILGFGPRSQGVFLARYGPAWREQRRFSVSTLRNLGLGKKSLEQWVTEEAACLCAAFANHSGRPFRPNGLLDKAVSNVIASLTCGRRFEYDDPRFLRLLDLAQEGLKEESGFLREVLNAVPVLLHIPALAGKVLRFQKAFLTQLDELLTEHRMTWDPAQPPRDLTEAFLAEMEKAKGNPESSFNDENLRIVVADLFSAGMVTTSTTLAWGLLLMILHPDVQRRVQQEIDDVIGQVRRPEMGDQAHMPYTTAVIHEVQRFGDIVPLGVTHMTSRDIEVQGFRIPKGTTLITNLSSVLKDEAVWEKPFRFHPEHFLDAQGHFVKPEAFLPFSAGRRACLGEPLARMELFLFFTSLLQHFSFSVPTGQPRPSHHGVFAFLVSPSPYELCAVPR
quantity_kind: IC50

O=C(c1ccc(/C=C/c2n[nH]c3ccccc23)cc1)N1CCNCC1	> 10 µM

----------
- system: hERG channel (Homo sapiens)
- Sequence (Q12809 whole entry): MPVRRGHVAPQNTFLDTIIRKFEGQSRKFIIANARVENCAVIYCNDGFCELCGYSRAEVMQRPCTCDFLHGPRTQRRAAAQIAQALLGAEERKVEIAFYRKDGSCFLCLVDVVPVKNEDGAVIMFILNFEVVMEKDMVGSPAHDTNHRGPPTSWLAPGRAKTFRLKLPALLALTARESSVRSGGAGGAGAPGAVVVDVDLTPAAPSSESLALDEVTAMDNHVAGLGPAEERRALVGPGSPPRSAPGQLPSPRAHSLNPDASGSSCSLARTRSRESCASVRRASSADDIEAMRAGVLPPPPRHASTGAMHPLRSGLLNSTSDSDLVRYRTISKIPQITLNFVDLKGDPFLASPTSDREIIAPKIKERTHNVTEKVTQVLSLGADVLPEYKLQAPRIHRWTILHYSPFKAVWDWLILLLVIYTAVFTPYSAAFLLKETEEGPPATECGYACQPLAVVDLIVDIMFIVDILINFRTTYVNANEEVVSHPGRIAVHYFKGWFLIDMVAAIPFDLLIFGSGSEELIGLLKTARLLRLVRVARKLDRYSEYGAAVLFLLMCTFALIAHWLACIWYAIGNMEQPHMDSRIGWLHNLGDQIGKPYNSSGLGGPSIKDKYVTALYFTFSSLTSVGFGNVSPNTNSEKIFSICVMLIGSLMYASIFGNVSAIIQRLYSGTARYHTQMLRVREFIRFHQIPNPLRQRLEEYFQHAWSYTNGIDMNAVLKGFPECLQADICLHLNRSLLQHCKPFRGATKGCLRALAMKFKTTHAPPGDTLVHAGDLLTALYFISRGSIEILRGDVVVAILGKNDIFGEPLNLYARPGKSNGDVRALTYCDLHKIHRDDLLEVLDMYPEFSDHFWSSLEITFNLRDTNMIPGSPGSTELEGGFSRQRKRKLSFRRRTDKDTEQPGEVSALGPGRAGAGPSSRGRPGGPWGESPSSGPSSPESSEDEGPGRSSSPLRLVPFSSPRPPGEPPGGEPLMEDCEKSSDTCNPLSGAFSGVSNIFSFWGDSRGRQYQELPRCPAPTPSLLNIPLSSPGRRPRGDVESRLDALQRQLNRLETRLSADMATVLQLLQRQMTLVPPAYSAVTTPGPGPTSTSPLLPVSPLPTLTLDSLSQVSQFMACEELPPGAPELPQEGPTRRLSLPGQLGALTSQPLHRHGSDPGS
- experiment: biochemical
pIC50: −log10 of the molar value.
quantity_kind: pIC50

O=C(c1ccc(/C=C/c2n[nH]c3ccccc23)cc1)N1CCNCC1	< 5.00

----------
Each entry below carries its reported pIC50.
- System: BT-12 cells
- experiment: PrestoBlue Cell Viability assay
- Format: cell-based
- experimental_parameters: Homo sapiens, BT-12; read-out: PB: IC50 of the PrestoBlue Viability assay
- Procedure: Cell viability was assessed using the Presto Blue™ Cell Viability reagent (Thermo Fisher Scientific, Carlsbad, CA, USA) following the manufacturer’s instructions. Cells were plated in 96-well plates at the same densities described above for the proliferation assay. The fluorescence was measured after 24, 48, 72, and 96 h at concentrations ranging from 0.001 to 10 µM of the inhibitor. All assays were performed in triplicate.
pIC50: −log10 of the molar value.
quantity_kind: pIC50

COc1ccc2c(c1)/C(=C\c1ccc3c(/C=C/c4ccc(N5CCN(C)CC5)nc4)n[nH]c3c1)C(=O)N2	6.22
COc1c(Nc2cc(C)[nH]n2)nc(Sc2ccc(S(=O)(=O)Cc3cccc([N+](=O)[O-])c3F)cc2F)nc1N1CCCCC1	5.20

----------
- System: DAOY cells
- Type: cell-based
- experimental_parameters: Homo sapiens, read-out: MTT: IC50 of the proliferation assay
pIC50: −log10 of the molar value.
quantity_kind: pIC50

COc1cc2c(cc1F)C(c1ccccc1Cl)=Nc1c(n[nH]c1C)N2 [R1530]	6.08
COc1cc(Nc2ncc3c(n2)-c2ccc(Cl)cc2C(c2c(F)cccc2OC)=NC3)ccc1C(=O)O [alisertib]	6.47
COc1ccc2c(c1)/C(=C\c1ccc3c(/C=C/c4ccc(N5CCN(C)CC5)nc4)n[nH]c3c1)C(=O)N2 [CFI-400437]	6.16

----------
Each entry below carries its reported pIC50.
- system: AURKA (Homo sapiens)
- Sequence (O14965 1-403): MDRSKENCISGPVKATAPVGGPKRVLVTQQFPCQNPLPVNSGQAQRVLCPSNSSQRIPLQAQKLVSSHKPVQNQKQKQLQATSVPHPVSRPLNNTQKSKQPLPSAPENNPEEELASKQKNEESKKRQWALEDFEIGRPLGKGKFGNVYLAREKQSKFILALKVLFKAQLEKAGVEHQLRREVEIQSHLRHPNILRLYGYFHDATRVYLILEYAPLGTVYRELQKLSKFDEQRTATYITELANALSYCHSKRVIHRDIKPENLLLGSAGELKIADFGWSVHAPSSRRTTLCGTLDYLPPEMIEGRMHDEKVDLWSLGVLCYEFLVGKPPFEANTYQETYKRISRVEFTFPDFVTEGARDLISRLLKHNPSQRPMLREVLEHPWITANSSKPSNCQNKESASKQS
pIC50: −log10 of the molar value.
quantity_kind: pIC50

COc1c(Nc2cc(C)[nH]n2)nc(Sc2ccc(S(=O)(=O)Cc3cccc([N+](=O)[O-])c3F)cc2F)nc1N1CCCCC1	6.21
COc1c(Nc2cc(C)[nH]n2)nc(Sc2ccc(S(=O)(=O)Cc3cccc([N+](=O)[O-])c3F)cc2F)nc1N1CCOCC1	6.97
COc1ccc2c(c1)/C(=C\c1ccc3c(/C=C/c4ccc(N5CCN(C)CC5)nc4)n[nH]c3c1)C(=O)N2	7.43
COc1cc2c(cc1F)C(c1ccccc1Cl)=Nc1c(n[nH]c1C)N2	8.21
